This document collects log10 IC50 values reported for Sodium-dependent noradrenaline transporter (Homo sapiens).
# log10 transformed; quantity=IC50; unit=nM

For orientation, consider the following solved cases.
CCn1c(=O)n([C@@H](c2cccc(F)c2)[C@H](O)CNC)c2c(F)cccc21: 1.02
CNC[C@@H](O)[C@H](c1cccc(F)c1)n1c(=O)n(C(C)C)c2cccc(F)c21: 0.84

Prompt: log10 IC50 lookup needed for `CCn1c(=O)n([C@@H](c2cccc(F)c2)[C@H](O)CNC)c2ccccc21` , thanks.
Completion: 0.87

Prompt: log10 IC50 lookup needed for `CNC[C@@H](O)[C@H](c1ccccc1)n1c(=O)n(C(C)C)c2cccc(F)c21` , thanks.
Completion: 0.89

Values were extracted from ChEMBL document CHEMBL1153531.
